Where do these numbers come from? They come from ChEMBL document CHEMBL1128439.

biological target: D(1A) dopamine receptor (Homo sapiens, UniProt P21728); assay: Affinity towards Dopamine receptor D1
Sequence (P21728 whole entry): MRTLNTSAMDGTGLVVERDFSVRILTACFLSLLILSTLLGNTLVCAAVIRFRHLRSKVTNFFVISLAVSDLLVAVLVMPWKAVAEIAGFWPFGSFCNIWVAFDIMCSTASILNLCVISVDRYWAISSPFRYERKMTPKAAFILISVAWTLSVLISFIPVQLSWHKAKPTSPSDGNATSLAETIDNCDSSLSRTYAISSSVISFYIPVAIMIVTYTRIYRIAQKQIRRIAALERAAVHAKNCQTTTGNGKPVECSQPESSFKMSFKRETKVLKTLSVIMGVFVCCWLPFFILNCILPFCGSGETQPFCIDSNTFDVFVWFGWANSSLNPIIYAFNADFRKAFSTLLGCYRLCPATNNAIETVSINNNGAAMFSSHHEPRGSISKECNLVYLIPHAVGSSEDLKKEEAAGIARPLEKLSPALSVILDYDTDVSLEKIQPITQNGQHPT
pIC50: −log10 of the molar value.
readout_label: pIC50

What value of pIC50 has been reported for the following molecule? NC1CCc2cc(O)c(O)cc2[C@H]1c1ccccc1 (stereo partly specified)
< 6.00

====

Record set of IC50 for target or system D(2) dopamine receptor (Rattus norvegicus, UniProt P61169).
Number in nM, nothing else.

Oc1cccc2c1CC[C@H]1NCc3ccccc3[C@H]21 :: 532

In the following, a different compound is considered.
What value of IC50 has been reported for the following compound? CCCN1Cc2ccccc2[C@@H]2c3cc(O)ccc3CC[C@H]21
210

====

target: UniProt:P14416; assay: In vitro receptor binding affinity against Dopamine receptor D2
Sequence (P14416 whole entry): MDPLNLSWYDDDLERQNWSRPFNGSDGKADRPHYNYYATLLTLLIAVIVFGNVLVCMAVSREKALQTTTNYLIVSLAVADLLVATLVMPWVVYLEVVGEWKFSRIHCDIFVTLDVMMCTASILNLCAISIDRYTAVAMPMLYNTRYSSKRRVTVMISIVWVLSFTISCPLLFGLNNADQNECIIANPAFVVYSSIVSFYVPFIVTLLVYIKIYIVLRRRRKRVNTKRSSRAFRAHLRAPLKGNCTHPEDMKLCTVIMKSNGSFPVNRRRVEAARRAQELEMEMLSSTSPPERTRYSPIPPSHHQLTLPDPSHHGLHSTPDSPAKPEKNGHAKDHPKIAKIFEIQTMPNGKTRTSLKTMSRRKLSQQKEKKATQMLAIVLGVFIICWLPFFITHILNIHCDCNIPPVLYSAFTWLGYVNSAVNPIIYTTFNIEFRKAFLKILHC
readout_label: IC50

What value of IC50 has been reported for the following molecule? NC1CCc2cc(O)c(O)cc2[C@H]1c1ccccc1 (stereo partly specified)
> 1000 nM

====

species: Rattus norvegicus; test: Effect on cAMP synthesis in rat striatal membranes as increase above basal value at a concentration of 10 uM; format: functional; conditions: Striatum, Membrane
Measured Increase by item
Number in %, nothing else.

Solved cases below.
Oc1cc2c(cc1O)[C@H]1c3ccccc3CN[C@@H]1CC2 :: 103
NCCc1ccc(O)c(O)c1 :: 100
Oc1ccc2c(c1)[C@H]1c3ccccc3CN[C@@H]1CC2 :: 15

In the following, a different molecule is considered.
What value of Increase has been reported for the following molecule? CN1Cc2ccccc2[C@@H]2c3cc(O)ccc3CC[C@H]21
8

====

target: D(2) dopamine receptor (Rattus norvegicus, UniProt P61169)
Sequence (P61169 whole entry): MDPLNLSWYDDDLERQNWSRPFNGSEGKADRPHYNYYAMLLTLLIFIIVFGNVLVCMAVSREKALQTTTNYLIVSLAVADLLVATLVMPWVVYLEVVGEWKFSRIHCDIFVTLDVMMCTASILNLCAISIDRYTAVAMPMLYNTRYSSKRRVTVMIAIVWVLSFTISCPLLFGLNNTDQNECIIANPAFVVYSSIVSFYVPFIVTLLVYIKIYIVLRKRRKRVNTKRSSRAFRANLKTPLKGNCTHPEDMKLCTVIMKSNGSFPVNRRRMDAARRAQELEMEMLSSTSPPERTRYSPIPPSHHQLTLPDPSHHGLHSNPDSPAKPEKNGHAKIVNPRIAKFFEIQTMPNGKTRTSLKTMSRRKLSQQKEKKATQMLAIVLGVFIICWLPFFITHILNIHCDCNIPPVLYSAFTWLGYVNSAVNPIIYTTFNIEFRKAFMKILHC
Doc: threshold 600 nM (exclusive). Items with IC50 beneath it return class 1; others return class 0.

CN1Cc2ccccc2[C@@H]2c3cc(O)ccc3CC[C@H]21 :: class 1
Oc1ccc2c(c1)[C@@H]1c3ccccc3CN[C@@H]1CC2 :: class 0
CN1Cc2ccccc2[C@@H]2c3ccc(O)c(O)c3CC[C@H]21 :: class 1
Oc1ccc2c(c1)[C@H]1c3ccccc3CN[C@@H]1CC2 :: class 0

Proceed to the following item.
Dear colleague, could you confirm whether IC50 of Oc1cccc2c1CC[C@H]1NCc3ccccc3[C@@H]21 falls below 600 nM? Thanks.
class 0
